biological target: T1, StrepII-tagged ROR1-extracellular domain (human) (human, UniProt Q01973 30-406); test: SPR (Biacore T200), purified mAb captured by anti-human Fc, ROR1-strep 2.5-20 nM as analyte, 1:1 model, 25 C
T1 construct: extracellular domain; also called ROR1-strep; soluble ROR1-strep
T1 sequence (Q01973 other isoform, or with tags, fused parts or gaps): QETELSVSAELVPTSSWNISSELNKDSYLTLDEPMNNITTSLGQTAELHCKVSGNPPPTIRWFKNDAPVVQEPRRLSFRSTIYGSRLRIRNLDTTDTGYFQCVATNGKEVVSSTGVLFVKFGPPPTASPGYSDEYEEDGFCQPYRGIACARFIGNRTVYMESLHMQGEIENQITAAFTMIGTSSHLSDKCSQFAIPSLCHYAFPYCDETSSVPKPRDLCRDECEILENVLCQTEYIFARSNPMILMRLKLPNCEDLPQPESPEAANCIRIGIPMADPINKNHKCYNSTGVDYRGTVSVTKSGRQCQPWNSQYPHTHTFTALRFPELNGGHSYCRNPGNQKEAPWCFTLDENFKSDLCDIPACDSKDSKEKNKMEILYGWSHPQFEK
pKd: −log10 of the molar value.
quantity: pKd

binder: rbQ11, humanized from R11 (antibody, human IgG1, V domains shown, Human IgG1/kappa, expressed in 293T cells and purified; also called huR11-Q11; rbQ11-32) VH: EVQLVQSGGGLVQPGGSLRLSCAASGSDINDYPISWVRQAPGKGLEWVSFINSGGSTWYASWVKGRFTISRDNAKNSLYLQMNSLRDDDTATYFCARGYSTYYGDFNIWGQGTLVTVSS VL: DIVMTQSPSSLSASVGDRVTITCQASQSIDSNLAWFQQKPGKAPKSLIYRASNLASGVPSKFSGSGSGTDFTLTISSLQREDAATYYCLGGVGNVSYRTSFGGGTKVEIK
value reported: 8.21
--
binder: hu2A2-D16, humanized from 2A2 (antibody, human IgG1, V domains shown, Human IgG1/kappa, expressed in 293T cells and purified; also called msD16-7) VH: EVQLVESGAEVKKPGASVKVSCKASGYTFSDYEMHWVRQAPGQGLEWVGAIDPETGGTAYNQKFKGRVTMTRDTSTSTVYMELSSLRSEDTAVYYCTGYYDYDSFTYWGQGTLVTVSS VL: DIQMTQSPSSLSASVGDRVTITCKASQNVDAAVAWYQQKPGKAPKLLIYSASNRYTGIPTRFSGSGSGTDFTLTISSLQSEDLADYFCQQYDIYPYTFGQGTKVEIK
value reported: 7.96
--
binder: chimeric mAb 2A2 (mouse variable regions, human IgG1/kappa constant regions) (antibody, V domains shown, also called chim 2A2; parental mAb 2A2) VH: QVQLQQSGAELVRPGASVTLSCKASGYTFSDYEMHWVIQTPVHGLEWIGAIDPETGGTAYNQKFKGKAILTADKSSSTAYMELRSLTSEDSAVYYCTGYYDYDSFTYWGQGTLVTVSA VL: DIVMTQSQKIMSTTVGDRVSITCKASQNVDAAVAWYQQKPGQSPKLLIYSASNRYTGVPDRFTGSGSGTDFTLTISNMQSEDLADYFCQQYDIYPYTFGGGTKLEIK
value reported: 8.24
--
binder: hu2A2b-Q11, humanized from 2A2 (antibody, human IgG1, V domains shown, also called hu2A2-Q11; msQ11-3) VH: EVQLVQSGAEVKKPGASVKVSCKASGYTFSDYEMHWVRQAPGQGLEWLGAIDPETGGTAYNQKFKGRVTMTGDTSISTAYMELSRLTSDDTAVYYCTGYYDYDSFTYWGQGTLVSVSS VL: DIQMTQSPSSLSTSVGDRVTITCKASQNVDAAVAWYQQKPGKAPKLLIYSASNRYTGVASRFSGSGSGTDFTFTISSLQSEDLADYFCQQYDIYPYTFGQGTKLEIK
value reported: 8.00
--
binder: rbD4, humanized from R11 (antibody, human IgG1, V domains shown, Human IgG1/kappa, expressed in 293T cells and purified; also called huR11-D4; rbD4-32) VH: EVQLVESGGGLVQPGRSLRLSCTASGSDINDYPISWFRQAPGKGLEWVGFINSGGSTWYASWVKGRFTISRDDSKSIAYLQMNSLKTDDTATYFCARGYSTYYGDFNIWGQGTTVTVSS VL: DVVMTQSPSSLSASVGDRVTITCQASQSIDSNLAWFQQKPGKAPNLLIYRASNLASGVPSRFSGSGSGTEFTLTISSLQREDAATYYCLGGVGNVSYRTSFGQGTKVEIK
value reported: 8.05
